Data provenance: the supplement of paper PMC10126150

Test system: ATP;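 also: ATP exposure 15 min at 22 °C before imaging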
assay-comment: switch fluorescence ratio, 500 uM ATP over buffer (Cy3 cluster intensity, sum of 5 cycles each) (fold (ratio)); higher = stronger signal-on switching upon ATP binding; sequences stand for … in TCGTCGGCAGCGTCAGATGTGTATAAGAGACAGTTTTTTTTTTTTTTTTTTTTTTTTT…TC
test-parameters: aptamer strand: ATP DNA aptamer (quencher-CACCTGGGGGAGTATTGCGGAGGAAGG + anchor), 100 nM annealed; ATP concentration: 500 uM
Assign Y whenever switch fluorescence ratio does not fall below 1; assign N whenever it does.

{"sequence-string": "TTTAGTGTTG", "qualitative-label": "N"}
{"sequence-string": "TACTTTTATT", "qualitative-label": "Y"}
{"sequence-string": "GAGGGCTCTT", "qualitative-label": "Y"}
{"sequence-string": "AGTTTGCCAG", "qualitative-label": "N"}
{"sequence-string": "CAGAGCCAAC", "qualitative-label": "Y"}
{"sequence-string": "TTTCGCGGTC", "qualitative-label": "Y"}
{"sequence-string": "ATGGAGCAGT", "qualitative-label": "Y"}
{"sequence-string": "TATATACGGG", "qualitative-label": "Y"}
{"sequence-string": "ATGTTTGGCC", "qualitative-label": "Y"}
{"sequence-string": "GGGGAAGGT", "qualitative-label": "Y"}
{"sequence-string": "TGTCGGGGGT", "qualitative-label": "Y"}
{"sequence-string": "CAGCTACTTG", "qualitative-label": "Y"}
{"sequence-string": "CGACGGTGAA", "qualitative-label": "Y"}
{"sequence-string": "ACCGTAGCGG", "qualitative-label": "Y"}
{"sequence-string": "CGAGGATGTG", "qualitative-label": "N"}
{"sequence-string": "TTACCCTATA", "qualitative-label": "Y"}
{"sequence-string": "CGACGGAAGG", "qualitative-label": "Y"}
{"sequence-string": "AATCCGGAAC", "qualitative-label": "Y"}
{"sequence-string": "CCCTCTATTC", "qualitative-label": "Y"}
{"sequence-string": "TGGATGTGTG", "qualitative-label": "N"}
{"sequence-string": "AGCATACGTT", "qualitative-label": "Y"}
{"sequence-string": "TTAATAAGTG", "qualitative-label": "N"}
{"sequence-string": "ACTGATGAAT", "qualitative-label": "Y"}
{"sequence-string": "CGAACGGTTG", "qualitative-label": "Y"}
{"sequence-string": "GTGTGGAGGA", "qualitative-label": "Y"}

====

Property: switch fluorescence ratio; scope: individual sequences
System: ATP;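 also: ATP exposure 15 min at 22 °C before imaging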
assay-comment: switch fluorescence ratio, 500 uM ATP over buffer (Cy3 cluster intensity, sum of 5 cycles each) (fold (ratio)); higher = stronger signal-on switching upon ATP binding; sequences stand for … in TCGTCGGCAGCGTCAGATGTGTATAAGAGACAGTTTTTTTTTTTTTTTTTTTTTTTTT…TC
test-parameters: aptamer strand: ATP DNA aptamer (quencher-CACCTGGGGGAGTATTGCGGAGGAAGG + anchor), 100 nM annealed; ATP concentration: 500 uM

{"sequence-string": "TCGAGCAGTG", "switch fluorescence ratio": 1.06}
{"sequence-string": "TAGCTGCAAA", "switch fluorescence ratio": 1.05}
{"sequence-string": "CCAAGTAGTA", "switch fluorescence ratio": 1.03}
{"sequence-string": "GCGGTTGCCA", "switch fluorescence ratio": 0.982}
{"sequence-string": "GCCGTCTGGC", "switch fluorescence ratio": 1.02}
{"sequence-string": "GCCATGGTTG", "switch fluorescence ratio": 1.04}
{"sequence-string": "GGTTTTTACA", "switch fluorescence ratio": 0.981}
{"sequence-string": "TCGACGATTT", "switch fluorescence ratio": 1.23}
{"sequence-string": "AGTTGCGTAG", "switch fluorescence ratio": 0.989}
{"sequence-string": "GTGGGTGAC", "switch fluorescence ratio": 0.977}
{"sequence-string": "TAGGGGGCTT", "switch fluorescence ratio": 1.01}
{"sequence-string": "GGGTTGTGGA", "switch fluorescence ratio": 1}
{"sequence-string": "TTATAGGGTA", "switch fluorescence ratio": 1}
{"sequence-string": "TCGTAGCAGG", "switch fluorescence ratio": 1.12}
{"sequence-string": "TTTCATTTAT", "switch fluorescence ratio": 0.986}
{"sequence-string": "TAACGTATGG", "switch fluorescence ratio": 1.03}
{"sequence-string": "GGTAGTTAAA", "switch fluorescence ratio": 0.999}
{"sequence-string": "TAATAGGCAG", "switch fluorescence ratio": 1.01}
{"sequence-string": "CAATGGCCTC", "switch fluorescence ratio": 1}
{"sequence-string": "AATTCCGGGT", "switch fluorescence ratio": 1.02}
{"sequence-string": "TTCAGCAATT", "switch fluorescence ratio": 1.57}
{"sequence-string": "ATGGGCAACT", "switch fluorescence ratio": 0.99}
{"sequence-string": "ATTGTGACTG", "switch fluorescence ratio": 0.975}
{"sequence-string": "GCTCTATACG", "switch fluorescence ratio": 1.05}
{"sequence-string": "TAGTCGCGTA", "switch fluorescence ratio": 1.05}
{"sequence-string": "CGGGCCTATT", "switch fluorescence ratio": 0.989}
{"sequence-string": "CAGGGGAGCA", "switch fluorescence ratio": 1.02}
{"sequence-string": "TTGGGAACGT", "switch fluorescence ratio": 1}
{"sequence-string": "ACCATGGGCC", "switch fluorescence ratio": 1.01}
{"sequence-string": "AAATCCGGTT", "switch fluorescence ratio": 1.01}
{"sequence-string": "GACAATTCTT", "switch fluorescence ratio": 1.01}
{"sequence-string": "ATTCGGTAA", "switch fluorescence ratio": 0.996}
{"sequence-string": "TCAGATGGGG", "switch fluorescence ratio": 1.03}
{"sequence-string": "TGGGGGGTTT", "switch fluorescence ratio": 1}
{"sequence-string": "TTCGATGTGG", "switch fluorescence ratio": 1.01}
{"sequence-string": "GCTATGAG", "switch fluorescence ratio": 0.995}
{"sequence-string": "TAAATCGTGC", "switch fluorescence ratio": 1.02}
{"sequence-string": "TTGGGACTTA", "switch fluorescence ratio": 1.01}
{"sequence-string": "CGATGGCTA", "switch fluorescence ratio": 0.965}
{"sequence-string": "TTGGTGTGGG", "switch fluorescence ratio": 0.986}
{"sequence-string": "GGTAAGGGTT", "switch fluorescence ratio": 0.987}
{"sequence-string": "GCTTTGGCTA", "switch fluorescence ratio": 1.02}
{"sequence-string": "ATGTTTGTAG", "switch fluorescence ratio": 0.979}
{"sequence-string": "TTGCTTGAGC", "switch fluorescence ratio": 1.01}
{"sequence-string": "CGGGGCAGGT", "switch fluorescence ratio": 1.01}
{"sequence-string": "TTTAAATTAA", "switch fluorescence ratio": 0.994}
{"sequence-string": "ATGACTGGAG", "switch fluorescence ratio": 0.99}
{"sequence-string": "TTTTTTAAAC", "switch fluorescence ratio": 0.996}
{"sequence-string": "AGTGCTTTTT", "switch fluorescence ratio": 1.01}
{"sequence-string": "TTTAAGGGG", "switch fluorescence ratio": 1.02}
{"sequence-string": "TGAACAAGAT", "switch fluorescence ratio": 1.01}
{"sequence-string": "CGCGTACATT", "switch fluorescence ratio": 1.05}
{"sequence-string": "TTTGAGGACA", "switch fluorescence ratio": 1.01}
{"sequence-string": "GTGGGGCAGT", "switch fluorescence ratio": 0.996}
{"sequence-string": "GGGCTATTAT", "switch fluorescence ratio": 1.02}
{"sequence-string": "GCTAATTGTG", "switch fluorescence ratio": 0.975}
{"sequence-string": "TAGTTGGATG", "switch fluorescence ratio": 1}
{"sequence-string": "CTGGCTAGGC", "switch fluorescence ratio": 1}
{"sequence-string": "TCGGTGGGGA", "switch fluorescence ratio": 0.992}
{"sequence-string": "CAGGATATAT", "switch fluorescence ratio": 1.01}
{"sequence-string": "CTGTTTTGGT", "switch fluorescence ratio": 1.01}
{"sequence-string": "TCCAGTGGGA", "switch fluorescence ratio": 1.11}
{"sequence-string": "TCTGGTGTGG", "switch fluorescence ratio": 0.994}
{"sequence-string": "TGTTCTTAGT", "switch fluorescence ratio": 1}
{"sequence-string": "ATCGGAGGAA", "switch fluorescence ratio": 1.17}
{"sequence-string": "TAATTTGGAG", "switch fluorescence ratio": 1}
{"sequence-string": "GCGACGGGCG", "switch fluorescence ratio": 0.972}
{"sequence-string": "GGATATAGGG", "switch fluorescence ratio": 1}
{"sequence-string": "CAGTGTGGTC", "switch fluorescence ratio": 0.979}
{"sequence-string": "TGAAACAGGT", "switch fluorescence ratio": 1}
{"sequence-string": "AGGGTGAGGC", "switch fluorescence ratio": 0.992}
{"sequence-string": "GGGTAGATGC", "switch fluorescence ratio": 1.01}
{"sequence-string": "GCTTACTCAT", "switch fluorescence ratio": 1.09}
{"sequence-string": "TATAAGGGGA", "switch fluorescence ratio": 1}
{"sequence-string": "CGATTTTCCT", "switch fluorescence ratio": 1.01}
{"sequence-string": "AAGAGGGATT", "switch fluorescence ratio": 0.983}
{"sequence-string": "AATAGGGGCA", "switch fluorescence ratio": 0.949}
{"sequence-string": "CAGCGGACCG", "switch fluorescence ratio": 1.02}
{"sequence-string": "TTTTTTCCGT", "switch fluorescence ratio": 1.07}
{"sequence-string": "GACTCTAGGA", "switch fluorescence ratio": 1.06}
{"sequence-string": "GCAGTAATTT", "switch fluorescence ratio": 1.49}
{"sequence-string": "AGGAACGGGT", "switch fluorescence ratio": 0.984}
{"sequence-string": "CTTTATGTTT", "switch fluorescence ratio": 0.991}
{"sequence-string": "GCTTTACTGT", "switch fluorescence ratio": 1.01}
{"sequence-string": "CTTTCATCTA", "switch fluorescence ratio": 1.01}
{"sequence-string": "TTTTTCTATG", "switch fluorescence ratio": 0.983}
